The origin of these recorded values is patent US10703733B2.

System: MCL-1/Bim interaction (recombinant human MCL-1 protein, residues 171-327; biotinylated human Bim peptide, residues 51-76) (Homo sapiens (Human))
Sequence (Q07820 171-327): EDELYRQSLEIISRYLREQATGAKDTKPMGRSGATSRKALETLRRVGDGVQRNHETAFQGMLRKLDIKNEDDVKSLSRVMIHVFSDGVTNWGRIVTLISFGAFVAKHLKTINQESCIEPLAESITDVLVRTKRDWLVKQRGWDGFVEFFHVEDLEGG
Test: MCL-1/Bim Binding AlphaLISA Assay
Condition Label: 0.0625 nM 6xHis-Mcl-1 (171-327), 0.0625 nM biotinylated-Bim peptide
Metric Name: IC50 (nM)

Worked set:
INSERT INTO measurements (molecule, metric_name, numeric_value) VALUES
  ('CC[C@H]1C/C=C/[C@H](OC)[C@@H]2CC[C@H]2CN2C[C@@]3(CCCc4cc(Cl)ccc43)COc3ccc(cc32)C(=O)N=[S@](=O)(NC(=O)c2cnn(C)c2)C1', 'IC50', 0.042),
  ('CO[C@H]1/C=C/C[C@H](C)C[S@@](=O)(NC(=O)c2ccc3ncnn3c2)=NC(=O)c2ccc3c(c2)N(C[C@@H]2CC[C@H]21)C[C@@]1(CCCc2cc(Cl)ccc21)CO3', 'IC50', 0.07),
  ('CO[C@H]1/C=C/C[C@H](C)C[S@@](=O)(NC(=O)c2cc(C(=O)N(C)C)n(C)c2)=NC(=O)c2ccc3c(c2)N(C[C@@H]2CC[C@H]21)C[C@@]1(CCCc2cc(Cl)ccc21)CO3', 'IC50', 0.071),
  ('CO[C@H]1/C=C/C[C@H](C)C[S@@](=O)(NC(=O)[C@H]2Cc3ccccc3CO2)=NC(=O)c2ccc3c(c2)N(C[C@@H]2CC[C@H]21)C[C@@]1(CCCc2cc(Cl)ccc21)CO3 (single isomer, unassigned)', 'IC50', 0.173),
  ('CO[C@H]1/C=C/C[C@H](C)C[S@@](=O)(NC(=O)c2csc(C)n2)=NC(=O)c2ccc3c(c2)N(C[C@@H]2CC[C@H]21)C[C@@]1(CCCc2cc(Cl)ccc21)CO3', 'IC50', 0.062);

[I] CO[C@@H]1CC[C@@H](NC(=O)N[S@@]2(=O)=NC(=O)c3ccc4c(c3)N(C[C@@H]3CC[C@H]3[C@@H](OC)/C=C/C[C@H](C)C2)C[C@@]2(CCCc3cc(Cl)ccc32)CO4)C1
[II] COC(=O)c1ccn2c1CN(C(=O)N[S@@]1(=O)=NC(=O)c3ccc4c(c3)N(C[C@@H]3CC[C@H]3[C@@H](OC)/C=C/C[C@H](C)C1)C[C@@]1(CCCc3cc(Cl)ccc31)CO4)CC2
[III] CO[C@H]1/C=C/C[C@H](C)C[S@@](=O)(NC(=O)c2cn(C)nc2C2CC2)=NC(=O)c2ccc3c(c2)N(C[C@@H]2CC[C@H]21)C[C@@]1(CCCc2cc(Cl)ccc21)CO3
Input line: Endpoint returns the given molecules ordered by ascending IC50. Sort the labels as requested; that list is your answer.
Output line: I, III, II
